# assay: Primary qHTS for inhibitors of nuclear receptor binding SET domain protein 2 (NSD2) in an RCH-ACV wild type WT cells (2C) (AID 1645877); further: nearly all actives have a fitted effect of over 70% in size; on activity change, negative = cell killing: on the % scale 0 is the no-effect control and ±100 the full control effect
# measurement.setup: RCH-ACV (leukaemia line) NSD2 WT (2C) viability, CellTiter-Glo, 72 h; series mostly up to 44.9 µM
Inconclusive results are not listed. Active and inactive are the calls of the source. The call rests on the fitted dose curve; in most records, active means well fitted inhibition curve with a large enough effect; inconclusive means small, poorly fitted or top-dose-only effect; inactive means no such curve, though single readings can be large or run the other way.

compound: CC(=O)O[C@H]1[C@H](O[C@H]2CC[C@]34C[C@]35CC[C@]3(C)[C@@H]([C@@]6(C)CC[C@@H](C(C)(C)O)O6)[C@@H](O)C[C@@]3(C)[C@@H]5C[C@H](O[C@@H]3O[C@H](CO)[C@@H](O)[C@H](O)[C@H]3O)[C@H]4C2(C)C)OC[C@@H](OC(C)=O)[C@@H]1O
activity change, negative = cell killing: inactive
--
compound: C=CC(C)(O)C1CC2C3(C)CCCC(C)(C)C3C(O)C(O)C2(C)O1 (stereo not drawn)
activity change, negative = cell killing: inactive
--
compound: C/C=C/C=C/C=C/C(=O)OC1C=C2C(O)OC(=O)[C@]2(O)[C@@]2(C)CCCC(C)(C)[C@H]12 (stereo partly drawn)
activity change, negative = cell killing: inactive

----------
# System: Es-2
# assay: Primary qHTS to identify gynecologic anti-cancer compounds using libraries of approved drugs and bioactive compounds (AID 1345084); further: on the % scale 0 is the no-effect control and ±100 the full control effect; nearly all actives have a fitted effect of over 55% in size
# measurement.setup: Gynecologic cancer cell panel viability, ATPlite luminescence, 48 h; series mostly up to 57.5 µM
Records with an inconclusive call do not appear. The source made the active and inactive calls. The call rests on the fitted dose curve; in most records, active means well fitted cell-killing curve with a large enough effect; inconclusive means small, poorly fitted or top-dose-only effect, or effect the other way; inactive means flat fitted curve, though single readings scatter.

molecule: COc1cc(Nc2nc3c(s2)CCCC3c2ccccc2)ccc1-n1cnc(C)c1 (stereo not drawn)
experimental.target: Es-2
activity change, negative = cytotoxicity: 3.55% [at 11.6 µM] (inactive)

molecule: CCCCS(=O)(=O)NC(Cc1ccc(OCCCCC2CCNCC2)cc1)C(=O)O (stereo not drawn)
experimental.target: Es-2
activity change, negative = cytotoxicity: inactive

molecule: C[C@H]1[C@H](C)C[C@@H](C(=O)O)C2CC[C@]3(C)C(=CC[C@@H]4[C@@]5(C)CC[C@H](O)C(C)(C)[C@@H]5CC[C@]43C)[C@@H]21 (stereo partly drawn)
experimental.target: Es-2
activity change, negative = cytotoxicity: inactive

----------
# Tested on: Zika virus NS2B-NS3 protease (unlinked complex)
# assay: Primary screen GU Rhodamine qHTS for Zika virus inhibitors: Unlinked NS2B-NS3 protease assay (AID 1347159); further: nearly all actives have a fitted effect of over 60% in size
# measurement.setup: Recombinant ZIKV NS2B-NS3 protease, Rhodamine110 substrate fluorescence; series mostly up to 107 µM
Inconclusive results are not listed. Activity calls are given as the source filed them. The call rests on the fitted dose curve; in most records, active means well fitted inhibition curve with a large enough effect; inconclusive means small, poorly fitted or top-dose-only effect; inactive means no such curve, though single readings can be large or run the other way.
Hi there, use one of these labels in your reply, thanks! 1.0 (active), 0.0 (inactive)

compound: C=C1CC[C@@H]2C(C)(C)CCC[C@@]2(C)[C@@H]1CC/C(=C/C(=O)OC)COC(C)=O
discrete.label: 0.0
--
compound: C/C=C/C=C/C=C/C(=O)N(C)C(C(=O)NC(C)C(=O)N1CCCC1C(N)=O)C(C)C (centres undefined)
discrete.label: 0.0
--
compound: CC(C)c1ccc2c(c1)C(O)CC1C(C)(CO)CCCC21C (centres undefined)
discrete.label: 0.0

Exercise: Test call, this compound: COc1ccc(CC(NC(C)=O)C(=O)O)cc1 (centres undefined)
Solution: 1.0

Exercise: Test call, this compound: Cc1ncc(Cl)cc1NCc1ccc(C(=O)NC(CC2CCCC2)C(=O)NC2CC2)s1 (centres undefined)
Solution: 0.0

Exercise: Test call, this compound: C[C@@H]1O[C@@H](O[C@H]2[C@H](O[C@H]3[C@H](O[C@H]4CC[C@@]5(C)C(CC[C@]6(C)C5CC=C5[C@@H]7CC(C)(C)C[C@@H](O)[C@]7(C)CC[C@]56C)[C@@]4(C)CO)O[C@H](C(=O)O)[C@@H](O)[C@@H]3O)O[C@H](C(=O)O)[C@H](O)[C@@H]2O)[C@H](O)[C@H](O)[C@H]1O (some centres undefined)
Solution: 0.0

Exercise: Test call, this compound: Nc1ncnc2c1c(COc1cccc(Cl)c1)nn2C1CCOCC1
Solution: 0.0

Exercise: Test call, this compound: OC[C@@]1(O)CO[C@H](OC[C@H]2O[C@@H](OC(CCCCc3ccc(O)cc3)CCc3ccc(O)cc3)[C@H](O)[C@@H](O)[C@@H]2O)[C@@H]1O (some centres undefined)
Solution: 0.0

Exercise: Test call, this compound: CC(=O)OCC1OC(O[C@H]2CC[C@@]3(C)C(CC[C@]4(C)C3CC=C3[C@@H]5CC(C)(C)CC[C@]5(C(=O)O)CC[C@]34C)[C@]2(C)CO)C(O)C(O)C1OC1OC(C)C(O)C(OC2OCC(O)C(O)C2O)C1O (some centres undefined)
Solution: 0.0

Exercise: Test call, this compound: COC1OC(=O)C2=C1C1(C)CCCC(C)(C)C1CC2O (centres undefined)
Solution: 0.0

Exercise: Test call, this compound: O=C(/C=C/c1ccc(O)cc1)O[C@H]1[C@H](OC2CCCCC2O)O[C@H](CO)[C@@H](O)[C@@H]1O (some centres undefined)
Solution: 0.0

Exercise: Test call, this compound: O=C(O)c1cccc(CN2C(=O)/C(=C(\c3ccccc3)c3ccc(Cl)cc3)c3ccccc32)c1
Solution: 1.0

Exercise: Test call, this compound: C[C@]12CC/C(=N\OCC(=O)O)C=C1CC[C@@H]1[C@@H]2[C@@H](O)C[C@@]2(C)[C@H]1CC[C@]2(O)C(=O)CO
Solution: 0.0

Exercise: Test call, this compound: COC(=O)C[C@H]1C(C)(C)[C@H](OC(=O)C(C)C)C2CC3=C4CC(=O)O[C@@H](c5ccoc5)[C@]4(C)CCC3[C@@]1(C)C2=O (some centres undefined)
Solution: 0.0
